Exercise: for every item that follows, state its recorded pIC50.
Test system: Caco-2
Assay: Cytotoxicity against human Caco2 cells assessed as cell viability after 24 hrs by MTT assay
Type: functional, cell-based
Conditions: Caco-2, 24 h
Answers are plain numbers, as −log10 of the molar value.

Worked cases, answers included:
>>> print(df.to_string())
                           structure_smiles  measured_metric  test_value
0  C[C@H](CCC(=O)O)[C@H]1CC[C@H]2[C@@H]3[C@H](O)C[C@@H]4C[C@H](N=[N+]=[N-])CC[C@]4(C)[C@H]3CC[C@]12C            pIC50        4.36
1  C[C@H](CCC(=O)O)[C@H]1CC[C@H]2[C@@H]3[C@H](O)C[C@@H]4C[C@H](O)CC[C@]4(C)[C@H]3CC[C@]12C            pIC50        3.97

# input Look up pIC50: "CC(=O)O[C@@H]1C[C@@H]2C[C@@H](N=[N+]=[N-])CC[C@]2(C)[C@H]2CC[C@]3(C)[C@@H]([C@H](C)CCC(=O)NC4CC4)CC[C@H]3[C@H]12"
# output 5.21

====

Exercise: for every item that follows, state its recorded pIC50.
Test system: Caco-2
Experiment: Cytotoxicity against human Caco2 cells assessed as cell viability after 24 hrs by MTT assay
Format: functional, cell-based
Conditions: Caco-2, 24 h
Answers are plain numbers, as −log10 of the molar value.

Worked cases, answers included:
>>> print(df.to_string())
                           structure_smiles  test_value
0  C[C@H](CCC(N)=O)[C@H]1CC[C@H]2[C@@H]3[C@H](O)C[C@@H]4C[C@@H](N=[N+]=[N-])CC[C@]4(C)[C@H]3CC[C@]12C        5.01
1  C[C@H](CCC(=O)O)[C@H]1CC[C@H]2[C@@H]3[C@H](O)C[C@@H]4C[C@@H](N=[N+]=[N-])CC[C@]4(C)[C@H]3CC[C@]12C        4.39

For the next question, use this compound.
# input Look up pIC50: "C[C@H](CCC(N)=O)[C@H]1CC[C@H]2[C@@H]3CC[C@@H]4C[C@H](N=[N+]=[N-])CC[C@]4(C)[C@H]3C[C@H](O)[C@]12C"
# output 4.90

====

Exercise: for every item that follows, state its recorded IC50.
Test system: Caco-2
Assay: Cytotoxicity against human Caco2 cells assessed as cell viability after 24 hrs by MTT assay
Type: functional, cell-based
Details: Caco-2, 24 h
Numbers only, in µM.

In [3]: df
Out[3]:
                           structure_smiles  output_unit  test_value
0  CC(=O)O[C@@H]1C[C@@H]2C[C@@H](N=[N+]=[N-])CC[C@]2(C)[C@H]2CC[C@]3(C)[C@@H]([C@H](C)CCC(N)=O)CC[C@H]3[C@H]12           µM         5.5

For the next question, use this compound.
# input Look up IC50: "C[C@H](CCC(=O)O)[C@H]1CC[C@H]2[C@@H]3CC[C@@H]4C[C@H](O)CC[C@]4(C)[C@H]3CC[C@]12C"
# output 56

====

Test system: Caco-2
Assay: Cytotoxicity against human Caco2 cells assessed as cell viability after 24 hrs by MTT assay
Format: functional, cell-based
Settings: Caco-2, 24 h
measured_metric: IC50 (µM)
Numbers only, in µM.

In [3]: df
Out[3]:
                           structure_smiles  measured_metric  test_value
0  C[C@H](CCC(=O)NC1CC1)[C@H]1CC[C@H]2[C@@H]3CC[C@@H]4C[C@@H](N=[N+]=[N-])CC[C@]4(C)[C@H]3C[C@H](O)[C@]12C             IC50         6.3

For the next question, use this molecule.
# input Look up IC50: "C[C@H](CCC(=O)NC1CC1)[C@H]1CC[C@H]2[C@@H]3CC[C@@H]4C[C@H](N=[N+]=[N-])CC[C@]4(C)[C@H]3C[C@H](O)[C@]12C"
# output 2.3

All values here come from ChEMBL document CHEMBL3102698.
